assay_system: Androgen Receptor (Homo sapiens, UniProt P10275)
Construct: endogenous in cells; host or cells: VCaP cells
Sequence (P10275 1-920): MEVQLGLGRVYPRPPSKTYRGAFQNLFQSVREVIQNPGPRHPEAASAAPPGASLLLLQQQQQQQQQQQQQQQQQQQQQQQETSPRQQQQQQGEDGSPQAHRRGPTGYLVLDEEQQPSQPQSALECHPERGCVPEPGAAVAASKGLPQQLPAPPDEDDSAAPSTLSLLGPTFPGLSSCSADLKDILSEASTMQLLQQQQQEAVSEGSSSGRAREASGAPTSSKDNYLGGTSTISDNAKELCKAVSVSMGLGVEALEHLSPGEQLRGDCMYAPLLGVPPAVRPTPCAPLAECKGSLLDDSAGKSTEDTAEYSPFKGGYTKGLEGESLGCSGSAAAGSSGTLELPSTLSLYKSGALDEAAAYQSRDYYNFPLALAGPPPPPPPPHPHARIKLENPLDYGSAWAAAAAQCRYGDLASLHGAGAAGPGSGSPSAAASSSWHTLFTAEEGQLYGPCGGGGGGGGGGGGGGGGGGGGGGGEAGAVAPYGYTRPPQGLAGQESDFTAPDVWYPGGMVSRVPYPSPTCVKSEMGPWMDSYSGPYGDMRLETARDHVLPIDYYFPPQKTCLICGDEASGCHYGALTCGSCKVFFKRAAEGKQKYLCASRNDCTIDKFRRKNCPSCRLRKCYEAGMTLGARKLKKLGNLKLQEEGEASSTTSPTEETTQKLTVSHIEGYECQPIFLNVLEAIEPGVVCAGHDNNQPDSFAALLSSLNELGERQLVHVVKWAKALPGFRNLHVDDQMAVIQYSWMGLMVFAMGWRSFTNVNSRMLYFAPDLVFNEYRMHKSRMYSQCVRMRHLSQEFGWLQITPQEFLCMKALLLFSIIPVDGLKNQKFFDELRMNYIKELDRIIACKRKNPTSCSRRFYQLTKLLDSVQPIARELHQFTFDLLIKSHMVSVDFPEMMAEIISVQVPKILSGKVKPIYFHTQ
assay_name: Androgen Receptor ELISA assay (PathScan AR ELISA) in VCaP cells: AR degradation, Dmax and DC50
Assay type: cell-based
assay_setup: VCaP, VCaP cells; Table 35; read-out: VCaP Dmax (%)
endpoint_label: Dmax

# annotated cases, reported Dmax shown
molecule | assay_system | observed
CC(C)(C)[C@H](NC(=O)COCCCCCNc1ccc(C(=O)N[C@H]2C(C)(C)[C@H](Oc3ccc(C#N)c(Cl)c3)C2(C)C)cc1)C(=O)N1C[C@H](O)C[C@H]1C(=O)NCc1ccc(-c2cccnn2)cc1 | Androgen Receptor (Homo sapiens, UniProt P10275) | 26 to 50%
CC(=O)O[C@@H]1C[C@@H](C(=O)N[C@@H](C)c2ccc(-c3scnc3C)cc2)N(C(=O)[C@@H](NC(=O)COCCCCCNc2ccc(C(=O)N[C@H]3C(C)(C)[C@H](Oc4ccc(C#N)c(Cl)c4)C3(C)C)cc2)C(C)(C)C)C1 | Androgen Receptor (Homo sapiens, UniProt P10275) | > 71%
CC(C)(C)[C@H](NC(=O)COCCCCCNc1ccc(C(=O)N[C@H]2C(C)(C)[C@H](Oc3ccc(C#N)c(Cl)c3)C2(C)C)cc1)C(=O)N1C[C@H](O)C[C@H]1C(=O)NCc1ccc(-c2ccccn2)cc1 | Androgen Receptor (Homo sapiens, UniProt P10275) | 26 to 50%
Cc1ncsc1-c1ccc([C@H](C)NC(=O)[C@@H]2C[C@@H](O)CN2C(=O)[C@@H](C(C)C)n2cc(OCC3CCN(c4ccc(C(=O)N[C@H]5C(C)(C)[C@H](Oc6ccc(C#N)c(Cl)c6)C5(C)C)cc4)CC3)cn2)cc1 | Androgen Receptor (Homo sapiens, UniProt P10275) | 51 to 70%
CC(C)(C)[C@H](NC(=O)COCCCCCNc1ccc(C(=O)N[C@H]2C(C)(C)[C@H](Oc3ccc(C#N)c(Cl)c3)C2(C)C)cc1)C(=O)N1C[C@H](O)C[C@H]1C(=O)NCc1ccc(-n2nccn2)cc1 | Androgen Receptor (Homo sapiens, UniProt P10275) | 26 to 50%
Cc1ncsc1-c1ccc(CNC(=O)[C@@H]2C[C@@H](O)CN2C(=O)[C@@H](NC(=O)COCCCCCNc2ccc(C(=O)N[C@H]3C(C)(C)[C@H](Oc4ccc(C#N)c(Cl)c4)C3(C)C)cc2)C(C)(C)C)nc1 | Androgen Receptor (Homo sapiens, UniProt P10275) | 51 to 70%

Lab book: Dmax of Cc1ncsc1-c1ccc(CNC(=O)[C@@H]2C[C@@H](O)CN2C(=O)[C@@H](NC(=O)COCCN2CCN(c3ccc(C(=O)N[C@H]4C(C)(C)[C@H](Oc5ccc(C#N)c(Cl)c5)C4(C)C)cc3)CC2)C(C)(C)C)cc1 noted as > 71%

Noted for Cc1ncsc1-c1ccc(CNC(=O)[C@@H]2C[C@@H](O)CN2C(=O)[C@@H](NC(=O)COCCCOCCCCCOc2ccc(N3C(=S)N(c4ccc(C#N)cc4)C(=O)C3(C)C)cc2)C(C)(C)C)cc1 : its Dmax reads 26 to 50%

Briefly, Dmax measured for Cc1ncsc1-c1ccc([C@H](C)NC(=O)[C@@H]2C[C@@H](O)CN2C(=O)[C@@H](NC(=O)CNC(=O)c2ccc(Oc3ccc(C(=O)N[C@H]4C(C)(C)[C@H](Oc5ccc(C#N)c(Cl)c5)C4(C)C)cn3)cc2)C(C)(C)C)nc1 : < 25%

// sample Cc1ncsc1-c1ccc([C@H](C)NC(=O)[C@@H]2C[C@@H](O)CN2C(=O)[C@@H](NC(=O)CNC(=O)c2ccc(Oc3ccc(C(=O)N[C@H]4C(C)(C)[C@H](Oc5ccc(C#N)c(Cl)c5)C4(C)C)cn3)cc2)C(C)(C)C)cc1 , its Dmax was > 71%

Form: molecule = Cc1ncsc1-c1ccc([C@@H](CN)NC(=O)[C@@H]2C[C@@H](O)CN2C(=O)[C@@H](NC(=O)COCCCCCOc2ccc(C(=O)N[C@H]3C(C)(C)[C@H](Oc4ccc(C#N)c(Cl)c4)C3(C)C)cc2)C(C)(C)C)cc1 ; Dmax = 26 to 50%

# molecule Cc1ncsc1-c1ccc([C@H](C)NC(=O)[C@@H]2C[C@@H](O)CN2C(=O)C(NC(=O)COCCCCCNc2ccc(C(=O)N[C@H]3C(C)(C)[C@@H](Oc4ccc(C#N)c(Cl)c4)C3(C)C)cc2)C(C)(C)C)cc1 (some centres unmarked) ; its Dmax = 51 to 70%

Cc1ncsc1-c1ccc([C@H](C)NC(=O)[C@H]2C[C@@H](O)CN2C(=O)[C@@H](NC(=O)COCCCCCNc2ccc(C(=O)N[C@H]3C(C)(C)[C@H](Oc4ccc(C#N)c(Cl)c4)C3(C)C)cc2)C(C)(C)C)cc1 yielded Dmax of < 25%

Entry under test: C[C@H](NC(=O)[C@@H]1C[C@@H](O)CN1C(=O)[C@@H](NC(=O)COCCCCOc1ccc(C(=O)N[C@H]2C(C)(C)[C@H](Oc3ccc(C#N)c(Cl)c3)C2(C)C)cc1)C(C)(C)C)c1ccc(-c2ncon2)cc1 . Its Dmax was > 71%
